- experimental_system: rat TRPM8 channel (Rattus norvegicus, UniProt Q8R455)
- Construct: expressed in transfected cells; host or cells: HEK293 (stably transfected)
- Sequence (Q8R455 whole entry): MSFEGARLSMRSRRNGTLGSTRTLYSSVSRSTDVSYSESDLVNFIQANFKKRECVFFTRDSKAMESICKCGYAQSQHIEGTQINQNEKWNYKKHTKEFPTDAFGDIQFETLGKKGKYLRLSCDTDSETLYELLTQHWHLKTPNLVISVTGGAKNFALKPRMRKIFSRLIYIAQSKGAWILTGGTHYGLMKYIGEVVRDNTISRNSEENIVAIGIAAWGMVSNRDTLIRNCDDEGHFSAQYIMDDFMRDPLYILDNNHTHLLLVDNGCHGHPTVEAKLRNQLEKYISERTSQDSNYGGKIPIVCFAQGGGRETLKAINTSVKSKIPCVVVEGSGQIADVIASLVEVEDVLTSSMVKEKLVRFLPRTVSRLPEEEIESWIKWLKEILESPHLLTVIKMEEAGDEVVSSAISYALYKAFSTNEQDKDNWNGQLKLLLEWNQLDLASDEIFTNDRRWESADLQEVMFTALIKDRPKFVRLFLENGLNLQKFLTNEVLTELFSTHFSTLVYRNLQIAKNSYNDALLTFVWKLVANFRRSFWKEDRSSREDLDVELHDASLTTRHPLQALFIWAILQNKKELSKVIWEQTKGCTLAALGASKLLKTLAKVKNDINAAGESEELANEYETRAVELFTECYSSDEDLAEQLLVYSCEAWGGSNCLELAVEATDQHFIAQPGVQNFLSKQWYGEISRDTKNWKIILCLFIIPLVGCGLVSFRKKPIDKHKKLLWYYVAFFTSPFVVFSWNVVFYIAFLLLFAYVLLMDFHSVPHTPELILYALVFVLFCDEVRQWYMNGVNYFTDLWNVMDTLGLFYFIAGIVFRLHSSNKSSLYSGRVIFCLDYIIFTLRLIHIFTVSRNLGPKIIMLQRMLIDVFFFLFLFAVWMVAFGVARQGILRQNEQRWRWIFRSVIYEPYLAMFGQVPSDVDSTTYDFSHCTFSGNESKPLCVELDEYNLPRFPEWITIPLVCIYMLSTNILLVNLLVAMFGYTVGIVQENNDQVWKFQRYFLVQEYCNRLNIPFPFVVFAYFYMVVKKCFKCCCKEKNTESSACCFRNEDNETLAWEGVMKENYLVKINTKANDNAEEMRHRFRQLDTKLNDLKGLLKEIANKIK
- assay: Ca2+ microfluorometry, menthol-induced Ca2+ influx in HEK293 cells expressing rat TRPM8
- Type: cell-based
- settings: 5 µM compound; 100 µM menthol; HEK-rTRPM8
observable: % Blockade 5 µM (%)

>  <compound>
C[C@@H]1C(=O)N(C[C@@H](Cc2ccccc2)NC(=O)OCc2ccccc2)[C@]1(Cc1ccccc1)C(=O)OCc1ccccc1 [Compound 29a]

>  <experimental_system>
rat TRPM8 channel (Rattus norvegicus, UniProt Q8R455)

>  <% Blockade 5 µM (%)>
97.2

$$$$
>  <compound>
CC(C(=O)OCc1ccccc1)N1C[C@@H](Cc2ccccc2)N(C(=O)OCc2ccccc2)[C@H](C)C1=O (some centres unmarked) [Compound 40ab]

>  <experimental_system>
rat TRPM8 channel (Rattus norvegicus, UniProt Q8R455)

>  <% Blockade 5 µM (%)>
79.1

$$$$
>  <compound>
O=C(OCc1ccccc1)C(Cc1ccccc1)N1C[C@@H](Cc2ccccc2)N(C(=O)OCc2ccccc2)CC1=O (some centres unmarked) [Compound 15ab]

>  <experimental_system>
rat TRPM8 channel (Rattus norvegicus, UniProt Q8R455)

>  <% Blockade 5 µM (%)>
101.4

$$$$
>  <compound>
O=C(N[C@H](Cc1ccccc1)CN1C(=O)CC1(Cc1ccccc1)C(=O)OCc1ccccc1)OCc1ccccc1 (some centres unmarked) [Compound 14ab]

>  <experimental_system>
rat TRPM8 channel (Rattus norvegicus, UniProt Q8R455)

>  <% Blockade 5 µM (%)>
91.0

$$$$
>  <compound>
CC1C(=O)N(C[C@@H](Cc2ccccc2)NC(=O)OCc2ccccc2)[C@@]1(Cc1ccccc1)C(=O)OCc1ccccc1 (some centres unmarked) [Compound 31ab]

>  <experimental_system>
rat TRPM8 channel (Rattus norvegicus, UniProt Q8R455)

>  <% Blockade 5 µM (%)>
91.0

$$$$
